- testedOn: Ephrin type-B receptor 4 (Homo sapiens) (UniProt P54760)
- Sequence (whole entry): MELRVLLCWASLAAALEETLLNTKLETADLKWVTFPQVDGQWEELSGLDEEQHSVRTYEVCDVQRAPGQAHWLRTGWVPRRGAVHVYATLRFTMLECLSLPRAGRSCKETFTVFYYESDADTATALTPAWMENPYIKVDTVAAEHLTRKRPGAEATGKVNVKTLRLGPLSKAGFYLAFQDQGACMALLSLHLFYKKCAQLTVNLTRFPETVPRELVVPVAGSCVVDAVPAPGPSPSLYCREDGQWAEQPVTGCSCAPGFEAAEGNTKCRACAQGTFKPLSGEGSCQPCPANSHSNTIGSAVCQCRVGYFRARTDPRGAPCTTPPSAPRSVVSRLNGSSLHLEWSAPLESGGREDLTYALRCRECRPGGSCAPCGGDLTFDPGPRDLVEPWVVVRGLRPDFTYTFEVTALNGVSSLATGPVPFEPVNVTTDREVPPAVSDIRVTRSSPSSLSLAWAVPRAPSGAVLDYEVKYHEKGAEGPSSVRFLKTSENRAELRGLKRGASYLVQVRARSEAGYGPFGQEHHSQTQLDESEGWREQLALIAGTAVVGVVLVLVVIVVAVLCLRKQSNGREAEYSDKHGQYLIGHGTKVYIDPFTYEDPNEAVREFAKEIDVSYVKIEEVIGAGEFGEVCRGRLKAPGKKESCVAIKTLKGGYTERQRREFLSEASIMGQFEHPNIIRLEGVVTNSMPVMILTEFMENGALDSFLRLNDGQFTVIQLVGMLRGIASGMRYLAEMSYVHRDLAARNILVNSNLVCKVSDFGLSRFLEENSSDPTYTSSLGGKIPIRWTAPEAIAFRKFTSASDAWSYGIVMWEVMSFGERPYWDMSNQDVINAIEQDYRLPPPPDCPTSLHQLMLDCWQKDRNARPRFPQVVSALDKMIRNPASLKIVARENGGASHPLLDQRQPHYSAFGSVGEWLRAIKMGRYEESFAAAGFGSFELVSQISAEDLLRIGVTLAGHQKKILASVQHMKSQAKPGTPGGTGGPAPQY
- experimentDescription: Inhibition of EphB4 assessed as blockade of synthetic substrate phosphorylation at 10 uM by FRET assay
- Set-up: scale not given: the % may be the effect or the level left
measuredAttribute: Activity (%)
Reply with just the number (in %).

Query: Notebook entry, Ephrin type-B receptor 4 (Homo sapiens) (UniProt P54760) assay: Activity of COc1ccccc1-n1c(-c2ccccc2O)cn2c3c(=O)[nH]c(=O)n(C)c3nc12 = ?
Reply: 64

Query: Lookup CCCCn1c(-c2ccc(C)cc2)cn2c3c(=O)[nH]c(=O)n(C)c3nc12
Reply: 38

Query: Lookup CCCCn1c(-c2cccc(C)c2)cn2c3c(=O)[nH]c(=O)n(C)c3nc12
Reply: 37

Query: Lookup CCCCn1c(-c2cccc(OC)c2)cn2c3c(=O)[nH]c(=O)n(C)c3nc12
Reply: 36

Query: Lookup COc1ccccc1-n1c(-c2ccc(O)cc2)cn2c3c(=O)[nH]c(=O)n(C)c3nc12
Reply: 59

Query: Lookup Cn1c(=O)[nH]c(=O)c2c1nc1n(CCCCO)c(-c3ccc4c(c3)OCO4)cn21
Reply: 42

Query: Lookup COc1ccccc1-n1c(-c2cccc3c2OCO3)cn2c3c(=O)[nH]c(=O)n(C)c3nc12
Reply: 30

----------
- testedOn: Ephrin type-A receptor 8 (Homo sapiens, UniProt P29322)
- Sequence (P29322 whole entry): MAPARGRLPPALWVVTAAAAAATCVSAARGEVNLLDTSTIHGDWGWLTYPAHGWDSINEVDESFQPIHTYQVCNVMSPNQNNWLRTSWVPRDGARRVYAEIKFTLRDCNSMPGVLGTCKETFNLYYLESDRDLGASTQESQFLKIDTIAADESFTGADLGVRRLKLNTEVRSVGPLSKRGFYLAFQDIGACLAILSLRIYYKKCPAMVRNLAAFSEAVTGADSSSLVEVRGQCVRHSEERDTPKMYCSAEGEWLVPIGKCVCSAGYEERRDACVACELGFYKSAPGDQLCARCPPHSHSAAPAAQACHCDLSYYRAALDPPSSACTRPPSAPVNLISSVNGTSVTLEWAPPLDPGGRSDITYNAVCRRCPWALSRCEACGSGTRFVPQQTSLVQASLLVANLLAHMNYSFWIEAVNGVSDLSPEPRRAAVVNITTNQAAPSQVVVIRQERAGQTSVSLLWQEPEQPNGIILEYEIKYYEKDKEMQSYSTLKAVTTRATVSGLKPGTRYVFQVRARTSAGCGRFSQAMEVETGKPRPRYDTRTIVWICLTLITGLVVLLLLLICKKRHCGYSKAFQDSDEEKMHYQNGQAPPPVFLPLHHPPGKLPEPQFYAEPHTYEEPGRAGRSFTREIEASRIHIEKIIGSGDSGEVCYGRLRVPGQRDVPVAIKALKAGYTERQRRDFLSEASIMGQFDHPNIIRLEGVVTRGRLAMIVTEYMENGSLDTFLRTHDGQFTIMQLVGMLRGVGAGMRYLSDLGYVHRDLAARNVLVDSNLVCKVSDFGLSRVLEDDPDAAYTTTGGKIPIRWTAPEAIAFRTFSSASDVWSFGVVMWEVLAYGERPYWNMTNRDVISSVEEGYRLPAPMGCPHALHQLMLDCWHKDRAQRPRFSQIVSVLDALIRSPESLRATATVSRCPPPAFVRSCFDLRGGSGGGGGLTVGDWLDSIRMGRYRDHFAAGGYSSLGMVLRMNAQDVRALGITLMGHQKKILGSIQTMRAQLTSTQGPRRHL
measuredAttribute: IC50 (nM)
Reply with just the number (in nM).

Query: Need IC50, item COc1ccccc1-n1c(-c2cc(O)ccc2C)cn2c3c(=O)[nH]c(=O)n(C)c3nc12
Reply: 4.5

----------
- testedOn: Ephrin type-B receptor 4 (Homo sapiens)
- Sequence (P54760 whole entry): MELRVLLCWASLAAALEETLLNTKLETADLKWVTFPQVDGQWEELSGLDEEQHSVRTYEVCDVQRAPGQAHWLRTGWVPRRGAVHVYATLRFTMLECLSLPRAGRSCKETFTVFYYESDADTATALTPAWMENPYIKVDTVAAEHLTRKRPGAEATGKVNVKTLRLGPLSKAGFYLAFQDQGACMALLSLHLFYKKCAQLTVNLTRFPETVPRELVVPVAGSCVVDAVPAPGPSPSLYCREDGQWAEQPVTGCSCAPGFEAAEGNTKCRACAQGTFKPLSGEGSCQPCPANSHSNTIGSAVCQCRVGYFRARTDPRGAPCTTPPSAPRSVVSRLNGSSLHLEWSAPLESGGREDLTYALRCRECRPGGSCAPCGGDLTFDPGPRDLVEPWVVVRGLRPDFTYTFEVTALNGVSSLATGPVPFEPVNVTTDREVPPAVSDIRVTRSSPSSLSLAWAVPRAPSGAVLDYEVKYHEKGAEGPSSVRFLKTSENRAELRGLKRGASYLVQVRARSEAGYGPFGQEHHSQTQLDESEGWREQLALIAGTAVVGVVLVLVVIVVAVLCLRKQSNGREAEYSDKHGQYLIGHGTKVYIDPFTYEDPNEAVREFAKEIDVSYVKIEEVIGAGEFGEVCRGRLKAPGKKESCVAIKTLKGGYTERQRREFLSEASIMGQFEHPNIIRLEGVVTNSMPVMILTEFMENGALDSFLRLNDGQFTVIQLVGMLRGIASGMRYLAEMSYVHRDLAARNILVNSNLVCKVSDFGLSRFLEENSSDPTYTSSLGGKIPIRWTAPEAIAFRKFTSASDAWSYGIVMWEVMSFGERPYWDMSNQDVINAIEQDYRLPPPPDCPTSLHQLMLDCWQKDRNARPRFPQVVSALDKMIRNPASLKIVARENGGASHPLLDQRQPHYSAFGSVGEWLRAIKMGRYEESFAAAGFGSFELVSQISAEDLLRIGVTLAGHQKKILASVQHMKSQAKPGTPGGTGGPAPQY
- experimentDescription: Inhibition of EphB4 by [gamma33-P]ATP based assay
measuredAttribute: pIC50
Please note pIC50 is a logarithmic value: minus log10 of concentration in mol/L. Answer with that number alone.

Query: Need pIC50, item Cn1c(=O)[nH]c(=O)c2c1nc1n(CCCCO)c(-c3ccccc3)cn21
Reply: 5.25

Query: Lookup COc1ccccc1-n1c(-c2cc(O)ccc2C)cn2c3c(=O)[nH]c(=O)n(C)c3nc12
Reply: 8.80

Query: Lookup COc1ccccc1-n1c(-c2cccc(O)c2)cn2c3c(=O)[nH]c(=O)n(C)c3nc12
Reply: 6.67

Query: Lookup COc1ccccc1-n1c(-c2ccccc2C)cn2c3c(=O)[nH]c(=O)n(C)c3nc12
Reply: 7.33

----------
- testedOn: Ephrin type-B receptor 4 (Homo sapiens, UniProt P54760)
- Sequence (P54760 whole entry): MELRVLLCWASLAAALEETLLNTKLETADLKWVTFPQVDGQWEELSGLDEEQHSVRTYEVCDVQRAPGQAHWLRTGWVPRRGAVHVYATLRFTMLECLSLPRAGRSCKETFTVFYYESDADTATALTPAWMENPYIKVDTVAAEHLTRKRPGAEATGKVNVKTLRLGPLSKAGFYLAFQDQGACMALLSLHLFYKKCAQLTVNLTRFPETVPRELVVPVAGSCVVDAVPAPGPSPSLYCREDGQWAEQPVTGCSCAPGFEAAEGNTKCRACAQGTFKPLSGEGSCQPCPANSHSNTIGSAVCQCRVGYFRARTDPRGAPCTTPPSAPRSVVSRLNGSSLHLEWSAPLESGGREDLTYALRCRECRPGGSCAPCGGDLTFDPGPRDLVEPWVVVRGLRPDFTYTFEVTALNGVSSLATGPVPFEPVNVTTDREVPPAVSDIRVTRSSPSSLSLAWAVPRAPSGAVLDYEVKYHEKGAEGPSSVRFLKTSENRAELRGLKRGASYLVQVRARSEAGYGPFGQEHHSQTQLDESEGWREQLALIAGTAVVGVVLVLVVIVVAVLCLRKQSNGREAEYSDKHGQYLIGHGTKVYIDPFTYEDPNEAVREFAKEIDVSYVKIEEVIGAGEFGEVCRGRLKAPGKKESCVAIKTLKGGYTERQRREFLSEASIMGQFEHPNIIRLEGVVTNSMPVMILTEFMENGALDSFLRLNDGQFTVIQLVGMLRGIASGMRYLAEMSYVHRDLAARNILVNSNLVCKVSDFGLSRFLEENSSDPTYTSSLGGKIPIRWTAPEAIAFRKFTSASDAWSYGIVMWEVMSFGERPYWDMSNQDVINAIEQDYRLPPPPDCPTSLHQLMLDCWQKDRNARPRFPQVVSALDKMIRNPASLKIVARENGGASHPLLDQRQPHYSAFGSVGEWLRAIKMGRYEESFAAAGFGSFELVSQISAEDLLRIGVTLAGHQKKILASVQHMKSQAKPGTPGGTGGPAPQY
- experimentDescription: Inhibition of EphB4 assessed as blockade of synthetic substrate phosphorylation by FRET assay
measuredAttribute: pIC50
Please note pIC50 is a logarithmic value: minus log10 of concentration in mol/L. Answer with that number alone.

Query: Notebook entry, Ephrin type-B receptor 4 (Homo sapiens, UniProt P54760) assay: pIC50 of COc1ccccc1-n1c(-c2cc(O)ccc2C)cn2c3c(=O)[nH]c(=O)n(C)c3nc12 = ?
Reply: 8.30

Query: Lookup COc1ccccc1-n1c(-c2ccc(F)cc2)cn2c3c(=O)[nH]c(=O)[nH]c3nc12
Reply: 5.27

Query: Lookup CCCCn1c(-c2ccc(O)cc2)cn2c3c(=O)[nH]c(=O)n(C)c3nc12
Reply: 6.25

Query: Lookup COc1ccccc1-n1c(-c2cccc(O)c2C)cn2c3c(=O)[nH]c(=O)n(C)c3nc12
Reply: 5.92

Query: Lookup CCCCn1c(-c2ccccc2O)cn2c3c(=O)[nH]c(=O)n(C)c3nc12
Reply: 5.80

Query: Lookup CCCCn1c(-c2cccc(O)c2)cn2c3c(=O)[nH]c(=O)n(C)c3nc12
Reply: 6.16

Query: Lookup COc1ccccc1-n1c(-c2ccccc2C)cn2c3c(=O)[nH]c(=O)n(C)c3nc12
Reply: 6.74

Query: Lookup COc1ccccc1-n1c(-c2cccc(O)c2)cn2c3c(=O)[nH]c(=O)n(C)c3nc12
Reply: 6.43

Query: Lookup COc1ccccc1-n1c(-c2ccc(O)cc2C)cn2c3c(=O)[nH]c(=O)n(C)c3nc12
Reply: 6.63
